The origin of these recorded values is patent US11135234B2.

# System: P. aeruginosa MSC17707
# methodNotes: MIC, agar plate dilution method, P. aeruginosa MSC17707
# Format: cell-based, Pseudomonas aeruginosa
# condition: Pseudomonas aeruginosa, MSC17707, P. aeruginosa MSC17707, AMK-resistant, read-out: minimal inhibitory concentration (MIC)
testReadout: MIC (µg/mL)
Express your answer in µg/mL, writing the number without its unit.

Param item = CNC1C(O[C@H]2OC(CO)[C@@H](NCCCN)[C@H](O)C2O)O[C@H]2CC(N)[C@@H](O[C@@H]3C(N)C[C@@H](N)C[C@H]3O)OC2C1O (some centres unmarked) [Compound S1-n] ; retrieve measured MIC.
8

Param item = CNC1C(O[C@H]2OC(CO)[C@@H](NC(=N)N)[C@H](O)C2O)O[C@H]2CC(N)[C@@H](O[C@@H]3C(N)C[C@@H](N)C[C@H]3O)OC2C1O (some centres unmarked) [Compound S1-o] ; retrieve measured MIC.
4

Param item = CNC1C(O[C@H]2OC(CO)[C@@H](N(CCN)CCN)[C@H](O)C2O)O[C@H]2CC(N)[C@@H](O[C@@H]3C(N)C[C@@H](N)C(O)[C@H]3O)OC2C1O (some centres unmarked) [Compound A4-e, 4″-N,N-bis(2-aminoethyl)apramycin] ; retrieve measured MIC.
8

Param item = CNC1C(O[C@H]2OC(C)[C@@H](NC(=N)N)[C@H](O)C2O)O[C@H]2CC(N)[C@@H](O[C@H]3CC(O)[C@H](N)CC3N)OC2C1O (some centres unmarked) [Compound S1-q] ; retrieve measured MIC.
8

Param item = CNC1C(O[C@H]2OC(CO)[C@@H](NC(=O)CCN)[C@H](O)C2O)O[C@H]2CC(N)[C@@H](O[C@@H]3C(N)C[C@@H](N)C(O)[C@H]3O)OC2C1O (stereo partly drawn) [Compound V1-g, 4″-N-(β-alanyl)apramycin] ; retrieve measured MIC.
4
